Entries and their pKd values follow.
Experimental target: SCRIB_3, Q14160
Sequence (Q14160 999-1103): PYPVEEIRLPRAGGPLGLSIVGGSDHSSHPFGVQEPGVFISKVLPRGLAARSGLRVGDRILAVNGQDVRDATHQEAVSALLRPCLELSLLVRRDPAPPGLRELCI
Protocol details: holdup assay
Parameters: key: below the threshold = too weak to quantify, mostly under pKd 3.1 to 4
Reported conditions: plain residues with an end cap or a label only (N-terminal biotin on a linker: ttds)
Please reply with the number alone, leaving off any unit.

## Task Find the measured pKd of KQVVPFSSSV [GDA, Q9Y2T3] and report it.
## Result 3.93

Switching to the query record.
## Task Return the recorded pKd value; entry: PPRQRSETQV [HPV82-E6, Q9IR59]
## Result 4.05
